- protocol_description: SUPPLEMENTARY: Lyophilisation Solubility Assay (LYSA)
- Format: physicochemical
- measurement_conditions: read-out: Kinetic_solubility
This listing pairs compounds with measured log10 of solubility kinetic.
property: log10 of solubility kinetic (log10 of the value in µg/mL)

{"columns": ["compound", "log10 of solubility kinetic"],
 "data": [
  ["O=C([C@H]1CCCCN1C(=O)COc1ccccc1)N1Cc2ccc(O[C@@H]3CCOC3)cc2C1", 1.91],
  ["O=C([C@H]1CCCCN1C(=O)COc1ccccc1)N1Cc2ccc(C3CCOC3)cc2C1 (some centres undefined)", 1.66],
  ["COc1ccc(Cl)cc1S(=O)(=O)N(C)c1cc(C(=O)Nc2ccc(C(=O)O)cc2)cc2c1OCO2", 1.11],
  ["COc1ccc(Cl)cc1S(=O)(=O)N1COc2c(Cl)cc(C(=O)Nc3ccc(C(=O)O)cc3)cc21", 0.60],
  ["CS(=O)(=O)c1cccc(-c2nc([C@H]3CCCCN3C(=O)COc3ccccc3)no2)c1", 1.26],
  ["CC(=O)Nc1cccc(-c2nc([C@H]3CCCCN3C(=O)COc3ccccc3)n(C)n2)c1", 1.80],
  ["O=C(COc1ccccc1)N1CCCC[C@@H]1c1nc(-c2cc[nH]c(=O)c2)no1", 2.44]
]}

Data origin: ChEMBL document CHEMBL3431459
